molecular target: STE20-like serine/threonine-protein kinase (Homo sapiens); further: in the data inactive means no Kd found up to 30 µM
Sequence (Q9H2G2 whole entry): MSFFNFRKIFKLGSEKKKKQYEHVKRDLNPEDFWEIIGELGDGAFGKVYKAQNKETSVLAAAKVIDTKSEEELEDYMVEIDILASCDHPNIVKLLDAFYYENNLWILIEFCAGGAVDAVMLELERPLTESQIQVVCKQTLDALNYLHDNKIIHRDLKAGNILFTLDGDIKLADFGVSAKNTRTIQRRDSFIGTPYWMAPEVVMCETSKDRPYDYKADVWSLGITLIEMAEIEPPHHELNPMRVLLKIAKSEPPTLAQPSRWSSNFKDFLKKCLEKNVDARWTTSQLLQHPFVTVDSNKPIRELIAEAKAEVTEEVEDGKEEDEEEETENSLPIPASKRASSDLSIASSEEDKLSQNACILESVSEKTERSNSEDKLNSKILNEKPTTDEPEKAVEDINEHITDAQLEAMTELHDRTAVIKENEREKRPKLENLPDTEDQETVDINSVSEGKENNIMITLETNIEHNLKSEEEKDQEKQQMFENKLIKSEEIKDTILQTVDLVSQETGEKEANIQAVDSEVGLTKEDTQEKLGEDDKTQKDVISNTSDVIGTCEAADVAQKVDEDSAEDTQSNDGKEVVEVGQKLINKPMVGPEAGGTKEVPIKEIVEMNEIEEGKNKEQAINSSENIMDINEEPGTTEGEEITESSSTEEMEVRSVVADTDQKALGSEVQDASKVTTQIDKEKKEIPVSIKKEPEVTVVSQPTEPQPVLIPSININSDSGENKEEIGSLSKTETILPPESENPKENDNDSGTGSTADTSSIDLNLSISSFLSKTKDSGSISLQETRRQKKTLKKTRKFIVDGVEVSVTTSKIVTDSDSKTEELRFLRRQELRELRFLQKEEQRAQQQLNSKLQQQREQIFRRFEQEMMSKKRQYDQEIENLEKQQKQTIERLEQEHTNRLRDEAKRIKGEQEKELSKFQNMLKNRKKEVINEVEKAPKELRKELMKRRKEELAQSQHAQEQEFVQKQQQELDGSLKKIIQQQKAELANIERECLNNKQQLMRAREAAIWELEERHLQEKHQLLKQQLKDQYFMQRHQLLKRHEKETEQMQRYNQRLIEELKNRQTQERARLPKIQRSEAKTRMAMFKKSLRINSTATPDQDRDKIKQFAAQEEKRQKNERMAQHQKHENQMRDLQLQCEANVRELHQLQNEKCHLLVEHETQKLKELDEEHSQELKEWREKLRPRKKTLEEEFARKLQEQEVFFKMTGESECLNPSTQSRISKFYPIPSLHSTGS
Activity calls are given as the source filed them.
Respond only with the outcome that fits, drawn from active, inactive

Worked examples, 5 compounds total:
[
  {
    "compound": "CC[C@H](Nc1ncnc2[nH]cnc12)c1nc2cccc(F)c2c(=O)n1-c1ccccc1 [IDELALISIB]",
    "system-name": "STE20-like serine/threonine-protein kinase (Homo sapiens)",
    "class-label": "inactive"
  },
  {
    "compound": "Cc1ccc(-n2nc(C(C)(C)C)cc2NC(=O)NCc2cc(F)ccc2Oc2ccc3c(cnn3CCO)c2)cc1 [PEXMETINIB]",
    "system-name": "STE20-like serine/threonine-protein kinase (Homo sapiens)",
    "class-label": "inactive"
  },
  {
    "compound": "CN1N=C(N)c2cn([C@@H]3O[C@H](COP(=O)(O)O)[C@@H](O)[C@H]3O)c3ncnc1c23 [TRICIRIBINE PHOSPHATE]",
    "system-name": "STE20-like serine/threonine-protein kinase (Homo sapiens)",
    "class-label": "inactive"
  },
  {
    "compound": "N[C@@H]1CCCN(c2c(/C=C3\\SC(=O)NC3=O)cccc2-c2ccccc2)C1",
    "system-name": "STE20-like serine/threonine-protein kinase (Homo sapiens)",
    "class-label": "inactive"
  },
  {
    "compound": "COC(=O)[C@@]1(O)C[C@H]2O[C@]1(C)n1c3ccccc3c3c4c(c5c6ccccc6n2c5c31)C(=O)NC4 [K-252A]",
    "system-name": "STE20-like serine/threonine-protein kinase (Homo sapiens)",
    "class-label": "active"
  }
]

Lookup: Tell me the recorded outcome of this test for CCn1c(=O)c(-c2cc[nH]n2)cc2c(C)nc(N)nc21 [VOXTALISIB] .
Found: inactive

Lookup: How was Cn1cc(-c2ccc(F)c(C(F)(F)F)c2)nc1C1CCN(c2ncnc3[nH]ncc23)CC1 [LY-2584702] classified in this test?
Found: inactive

Lookup: Please state the recorded outcome for this compound: CNC(=O)c1ccc(-c2cnc3ncc(Cc4ccc5ncccc5c4)n3n2)cc1F [CAPMATINIB]
Found: inactive

Lookup: # lookup: test call for CO[C@H]1C[C@@H]2CC[C@@H](C)[C@@](O)(O2)C(=O)C(=O)N2CCCC[C@H]2C(=O)O[C@H]([C@H](C)C[C@@H]2CC[C@@H](OCCO)[C@H](OC)C2)CC(=O)[C@H](C)/C=C(\C)[C@@H](O)[C@@H](OC)C(=O)[C@H](C)C[C@H](C)/C=C/C=C/C=C/1C [EVEROLIMUS]
Found: inactive

Lookup: Just curious, what result did COc1ccc(-c2ccc3c(N4CCOC[C@@H]4C)nc(N4CCOC[C@@H]4C)nc3n2)cc1CO [AZD-8055] get here?
Found: inactive

Lookup: For this compound, state the assay outcome: CN1CCC(COc2cnc(-c3cccc(Cn4nc(-c5cccc(C#N)c5)ccc4=O)c3)nc2)CC1 [TEPOTINIB]
Found: inactive

Lookup: What call does the record list for C[C@@H](c1ccc2nccn2c1)n1nnc2ncc(-c3cnn(C)c3)nc21 [SAVOLITINIB] ?
Found: inactive

Lookup: What classification did C[C@@H]1CN(Cc2ccc(F)cc2)[C@@H](C)CN1C(=O)c1cc2c(C(=O)C(=O)N(C)C)cn(C)c2cc1Cl [TALMAPIMOD] end up with in this test?
Found: inactive

Lookup: For CNS(=O)(=O)Nc1nccc(Cc2c(C)c3ccc(Oc4ncccn4)cc3oc2=O)c1F [AVUTOMETINIB] , which call appears in the assay record?
Found: inactive

Lookup: Which outcome did this test record for the compound Cc1ccc(NC(=O)c2ccc(CN3CC[C@H](N(C)C)C3)c(C(F)(F)F)c2)cc1Nc1nccc(-c2cncnc2)n1 [BAFETINIB] ?
Found: inactive

Lookup: Test call for this compound, please: COc1cc(N2CCC(N3CCN(C)CC3)CC2)ccc1Nc1ncnc(Nc2ccccc2S(=O)(=O)C(C)C)n1 [ASP-3026]
Found: active
